Measured Plate 2 (% conversion), listed per entry for reference.
molecular target: His6-AspH315–758 (human aspartate/asparagine-β-hydroxylase, AspH) (Homo sapiens, UniProt Q12797); construct: N-Terminally His6-tagged human AspH315–758 (His6-AspH315–758) was produced in E. coli BL21 (DE3) cells; made in house; host or cells: E. coli BL21 (DE3), pET-28a(+) vector; test: SPE-MS AspH inhibition assay (LOPAC screen at fixed 20 μM and IC50 dose-response), hydroxylation of cyclic peptide hFX-CP101–119; assay type: biochemical; details: LOPAC compound at 20uM, plate 2; conversion of substrate peptide
Sequence (Q12797 315-758): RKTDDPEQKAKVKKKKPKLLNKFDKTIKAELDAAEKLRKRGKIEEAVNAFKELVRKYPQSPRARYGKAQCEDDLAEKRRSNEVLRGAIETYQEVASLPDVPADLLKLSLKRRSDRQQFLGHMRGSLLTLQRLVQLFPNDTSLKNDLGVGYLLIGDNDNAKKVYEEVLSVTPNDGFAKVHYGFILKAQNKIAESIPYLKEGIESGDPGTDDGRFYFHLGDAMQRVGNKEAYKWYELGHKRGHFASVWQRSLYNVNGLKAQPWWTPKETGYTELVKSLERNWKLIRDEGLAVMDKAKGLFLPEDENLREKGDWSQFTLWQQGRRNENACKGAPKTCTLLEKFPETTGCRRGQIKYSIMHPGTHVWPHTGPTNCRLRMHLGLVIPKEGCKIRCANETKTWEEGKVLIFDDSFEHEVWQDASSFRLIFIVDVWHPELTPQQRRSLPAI
Give the number; % is assumed, so skip it.

Compound	Value
CC(C)C(=O)c1c(C(C)C)nn2ccccc12	39.05

Data request, read-out Plate 2 (% conversion), for N#Cc1cc2nc([O-])c([O-])nc2cc1[N+](=O)[O-].[Na+].[Na+] [CNQX disodium]
39.74

Can you handle Cl.Fc1ccc(CN(C2=NCCN2)c2c(Cl)cccc2Cl)cc1 [IMID-4F hydrochloride] next?
39.35

How about this compound: Cl.NO [Hydroxylamine hydrochloride]
39.20
